# target_entity: Saccharomyces cerevisiae α-glucosidase
# method_notes: α-Glucosidase inhibition assay (pNPG substrate)
# Assay type: biochemical
quantity_measured: α-Glucosidase IC50 (µg/mL)
Respond with the bare value in µg/mL.

Examples with answers:
Reported α-Glucosidase IC50 of O=C(/C=C/c1ccc(O)c(O)c1)O[C@@H]1C[C@](OC(=O)/C=C/c2ccc(O)c(O)c2)(C(=O)O)C[C@@H](O)[C@H]1O : 36.64

// α-Glucosidase IC50 lookup, molecule = O=c1cc(-c2ccc(O)cc2)oc2cc(O)cc(O)c12 , result: 3.88

***
Query C[C@@H]1O[C@@H](OC[C@H]2O[C@@H](Oc3c(-c4ccc(O)c(O)c4)oc4cc(O)cc(O)c4c3=O)[C@H](O)[C@@H](O)[C@@H]2O)[C@H](O)[C@H](O)[C@H]1O [Rutin (4), Quercetin 3-O-rutinoside (Rutin)] yields α-Glucosidase IC50 of 20.54
